Tested Target: Human FRA on IGROV-1 human ovarian adenocarcinoma cells (human, UniProt P15328 25-234)
Sequence (P15328 25-234 limits assumed): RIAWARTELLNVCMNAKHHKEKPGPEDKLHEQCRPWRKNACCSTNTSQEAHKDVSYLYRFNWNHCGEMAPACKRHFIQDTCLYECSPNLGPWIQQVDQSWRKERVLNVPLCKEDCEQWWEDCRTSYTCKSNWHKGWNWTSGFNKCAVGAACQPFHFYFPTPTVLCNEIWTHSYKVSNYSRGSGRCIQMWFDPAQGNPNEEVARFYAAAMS
Protocol Details: cell-based or functional assay
Each entry below carries its recorded INTL % (60 min).
Give the value, in units of %, as a plain number.

[
  {
    "Binder": "MORAb-003 anti-FRA antibody, lot NB859-27 (harvested 20 days after initiation of culture) (antibody, human IgG1, kappa, V domains shown, N-linked neutral glycans at Asn299 in SEQ ID NO: 5, also called Day 20 harvest) VH: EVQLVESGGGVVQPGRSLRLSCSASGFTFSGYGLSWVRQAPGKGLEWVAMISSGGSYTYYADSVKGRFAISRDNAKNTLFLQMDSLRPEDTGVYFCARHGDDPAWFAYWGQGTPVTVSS VL: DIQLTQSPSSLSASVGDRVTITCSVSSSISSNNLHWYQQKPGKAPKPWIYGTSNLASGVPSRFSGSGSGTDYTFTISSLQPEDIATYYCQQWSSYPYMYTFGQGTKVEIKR",
    "INTL % (60 min) / %": 40
  },
  {
    "Binder": "MORAb-003 anti-FRA antibody, lot NB810-12 (low temperature; harvested 14 days after initiation of culture) (antibody, human IgG1, kappa, V domains shown, N-linked neutral glycans at Asn299 in SEQ ID NO: 5) VH: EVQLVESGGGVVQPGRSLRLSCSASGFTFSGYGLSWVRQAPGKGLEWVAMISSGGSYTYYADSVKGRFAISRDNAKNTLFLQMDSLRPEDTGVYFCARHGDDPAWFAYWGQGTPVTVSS VL: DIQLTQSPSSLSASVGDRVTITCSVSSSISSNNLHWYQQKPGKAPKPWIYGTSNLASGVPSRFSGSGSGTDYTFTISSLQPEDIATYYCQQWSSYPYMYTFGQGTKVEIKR",
    "INTL % (60 min) / %": 39
  },
  {
    "Binder": "MORAb-003 anti-FRA antibody, lot NB809-70 (CuCl supplement; harvested 13 days after initiation of culture) (antibody, human IgG1, kappa, V domains shown, N-linked neutral glycans at Asn299 in SEQ ID NO: 5) VH: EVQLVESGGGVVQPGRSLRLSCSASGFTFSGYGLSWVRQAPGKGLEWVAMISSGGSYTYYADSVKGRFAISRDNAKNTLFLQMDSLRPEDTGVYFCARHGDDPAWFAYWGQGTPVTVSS VL: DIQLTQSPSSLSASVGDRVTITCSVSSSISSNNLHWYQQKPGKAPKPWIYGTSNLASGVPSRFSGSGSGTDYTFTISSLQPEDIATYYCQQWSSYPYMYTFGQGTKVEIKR",
    "INTL % (60 min) / %": 37
  },
  {
    "Binder": "MORAb-003 anti-FRA antibody, lot NB809-68 (high CO2; harvested 13 days after initiation of culture) (antibody, human IgG1, kappa, V domains shown, N-linked neutral glycans at Asn299 in SEQ ID NO: 5) VH: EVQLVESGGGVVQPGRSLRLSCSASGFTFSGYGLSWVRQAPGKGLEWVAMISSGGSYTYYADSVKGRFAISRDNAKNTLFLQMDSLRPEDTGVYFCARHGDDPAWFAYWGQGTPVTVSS VL: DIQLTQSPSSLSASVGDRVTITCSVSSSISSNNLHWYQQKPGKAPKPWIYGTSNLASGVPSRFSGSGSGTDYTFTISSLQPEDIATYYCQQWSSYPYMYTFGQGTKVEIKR",
    "INTL % (60 min) / %": 36
  },
  {
    "Binder": "MORAb-003 anti-FRA antibody, lot NB809-66 (0.5 mM Na butyrate; harvested 13 days after initiation of culture) (antibody, human IgG1, kappa, V domains shown, N-linked neutral glycans at Asn299 in SEQ ID NO: 5) VH: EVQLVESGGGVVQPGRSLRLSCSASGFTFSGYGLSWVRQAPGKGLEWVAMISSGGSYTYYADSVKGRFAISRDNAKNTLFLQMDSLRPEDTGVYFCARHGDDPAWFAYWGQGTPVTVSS VL: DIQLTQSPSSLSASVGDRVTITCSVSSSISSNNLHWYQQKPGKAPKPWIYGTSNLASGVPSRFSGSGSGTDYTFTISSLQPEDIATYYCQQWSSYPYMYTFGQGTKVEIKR",
    "INTL % (60 min) / %": 31
  }
]

Query string: May I ask what INTL % (60 min) has been recorded for MORAb-003 anti-FRA antibody, lot NB809-67 (low DO; harvested 13 days after initiation of culture) (antibody, human IgG1, kappa, V domains shown, N-linked neutral glycans at Asn299 in SEQ ID NO: 5) VH: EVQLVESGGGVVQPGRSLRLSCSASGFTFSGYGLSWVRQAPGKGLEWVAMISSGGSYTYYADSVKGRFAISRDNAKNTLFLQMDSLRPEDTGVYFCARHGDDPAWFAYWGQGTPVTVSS VL: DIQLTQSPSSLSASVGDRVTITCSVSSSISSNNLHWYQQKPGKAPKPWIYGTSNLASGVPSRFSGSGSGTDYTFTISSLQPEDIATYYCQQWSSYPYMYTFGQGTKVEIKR ?
Result string: 34

Origin of values: patent US20120164137A1
